From: a melting point compilation (Tetko et al.; mined from patent text by program, amines drawn as free bases though some values may be those of a salt)

For each record, write down the corresponding melting point.

stdin: Please report the measured melting point for CC1CC(=O)NN=C1c1ccc(N2CCN(Cc3ccccc3)CC2)c([N+](=O)[O-])c1 (stereo not given)
stdout: 220 to 221 °C

stdin: Please report the measured melting point for CCCc1nc(C)c2c(=O)[nH]c(C)nn12
stdout: 228 to 231 °C

stdin: Please report the measured melting point for Oc1ccccc1-c1cccnc1
stdout: 185 °C

stdin: Please report the measured melting point for O=C(NC(=O)c1ccccc1)NC1CCCc2sccc21 (stereo not given)
stdout: 189 to 194 °C

stdin: Please report the measured melting point for CC(=O)c1ccc(N2CCN(c3cccc(C)c3)CC2)nn1
stdout: 136 °C

stdin: Please report the measured melting point for COc1ccc(C2(Cn3ccnc3)CC(CNc3ccccc3C)ON2C)cc1 (stereo not given)
stdout: 110 to 111 °C

stdin: Please report the measured melting point for CC(C)(C)N1Sc2ccccc2C1O (stereo not given)
stdout: 114 to 116 °C

stdin: Please report the measured melting point for O=C(OCCN1CCN(CCN2CCOCC2)CC1)c1ccc(O)cc1
stdout: 176 to 178 °C

stdin: Please report the measured melting point for CC(=O)Oc1ccc(CCC(=O)Nc2cc(C)c(O)c(C)c2)cc1OC(C)=O
stdout: 118 to 119 °C

stdin: Please report the measured melting point for CCOC(=O)c1cn(-c2cccs2)c2c(F)c(F)c(F)c(C)c2c1=O
stdout: 198 to 200 °C

stdin: Please report the measured melting point for COC1=C(OC)C(=O)C2=C(CCC(CCOc3cc(OC)cc(OC)c3)CC2)C1=O
stdout: 63 to 65 °C

stdin: Please report the measured melting point for O=C(O)CCCCCc1nn(-c2ccccc2)c2c1CCCC2
stdout: 95 to 97 °C

stdin: Please report the measured melting point for O=C(CCCl)Nc1ccc2c(c1NC(=O)CCCl)C(=O)c1ccccc1C2=O
stdout: 179 to 180 °C

stdin: Please report the measured melting point for COc1cc(C(=O)c2c(C)c(C(=O)O)c3ccccn23)ccc1[N+](=O)[O-]
stdout: 215 °C

stdin: Please report the measured melting point for O=C(N[C@H]1CC[C@H](N2CCN(c3ccccn3)CC2)CC1)c1ccccc1
stdout: 241 to 244 °C

stdin: Please report the measured melting point for Nc1cccc(OCc2nc3ccccc3s2)c1
stdout: 117 to 120 °C

stdin: Please report the measured melting point for CN(C(=S)n1cc(F)c(N)nc1=O)c1ccccc1
stdout: 192 to 196 °C

stdin: Please report the measured melting point for O=C(O)c1ccc2c(c1)C=Cc1ccc(C(=O)O)cc1S2(=O)=O
stdout: 375 °C

stdin: Please report the measured melting point for COc1c(F)cc(-c2c(-c3ccc(S(C)(=O)=O)cc3)cnn(-c3ccc(F)c(Cl)c3)c2=O)cc1F
stdout: 195 to 197 °C

stdin: Please report the measured melting point for CC(C)(C)NC(=O)[C@@H]1C[C@H](Sc2ccccc2)CN1C(=O)OC(C)(C)C
stdout: 119 to 121 °C

stdin: Please report the measured melting point for OCCc1coc2c(OC3CCCCO3)cccc12 (stereo not given)
stdout: 74 to 76 °C

stdin: Please report the measured melting point for Cc1cc(NCc2ccc(-c3ccccc3-c3nnn(C(c4ccccc4)(c4ccccc4)c4ccccc4)n3)cc2)c(I)c(C)n1
stdout: 209 to 211 °C

stdin: Please report the measured melting point for O=C(O)C[C@H](NC(=O)CNC(=O)c1csc(NC(=O)NCc2ccccc2)n1)C(=O)Nc1ccccc1C(=O)O
stdout: 192 °C

stdin: Please report the measured melting point for CCCCCCCCCCCCn1nnc(C(=O)O)n1
stdout: 122 to 124 °C

stdin: Please report the measured melting point for O=C(O)Cc1c(C(=O)c2ccc(Cl)c(Cl)c2)[nH]c2cc(Cl)ccc12
stdout: 206 to 209 °C

stdin: Please report the measured melting point for CCOC(=O)c1oc(-c2ccc(Cl)cc2)nc1C
stdout: 80 to 81 °C

stdin: Please report the measured melting point for C=CCOn1cc(C(=O)NCc2ccc(Cl)cc2)c(=O)c2ccccc21
stdout: 113 to 114 °C

stdin: Please report the measured melting point for CC(C)(C)c1cc2c(c(C(C)(C)C)c1)OP(OC1CC(C)(C)N(OC3CCCCC3)C(C)(C)C1)Oc1c(cc(C(C)(C)C)cc1C(C)(C)C)C2
stdout: 140 to 144 °C

stdin: Please report the measured melting point for CCCCC1(SCC)CCC2C3CCC4=CC(=O)C=CC4(C)C3(F)C(O)CC21C (stereo not given)
stdout: 185 to 187 °C

stdin: Please report the measured melting point for Cc1oc(-c2ccccc2)nc1CCC(=O)c1ccc(C=C2SC(=O)NC2=O)cc1
stdout: 224 to 225 °C

stdin: Please report the measured melting point for COC(=O)C=Cc1ccc(OCCn2c(=O)sc3cc(C(=O)c4ccccc4)ccc32)cc1
stdout: 144 to 146 °C

stdin: Please report the measured melting point for COc1ccc(CNc2n[nH]c3ncnc(Nc4cccc(Cl)c4)c23)cc1OC
stdout: 228 to 232 °C

stdin: Please report the measured melting point for CC(=O)Nc1cc(O)ccc1/C=C/c1ccc(O)cc1
stdout: 227 to 229 °C

stdin: Please report the measured melting point for CN1OCC(=O)N(c2ccc(Oc3ccccc3)cc2)C1=S
stdout: 159 to 160 °C

stdin: Please report the measured melting point for OC(COc1ccccc1-n1cccc1)CN1CCOCC1 (stereo not given)
stdout: 81 to 82 °C

stdin: Please report the measured melting point for COc1ccc2[nH]cc(-c3cc4c(C#N)ccnc4[nH]3)c2c1
stdout: 303 to 304 °C

stdin: Please report the measured melting point for COc1ccnc(CCc2nc3cc(-c4ccc(S(=O)(=O)N5CCN(Cc6ccccc6)CC5)cc4)cnc3[nH]2)c1
stdout: 160 to 162 °C

stdin: Please report the measured melting point for COC(=O)c1cn2c(n1)COc1ccc(NC(C)=O)cc1-2
stdout: 216 to 219 °C

stdin: Please report the measured melting point for NC(=O)OC(=O)[C@@H]1Cc2ccccc2CN1C(=O)OCc1ccccc1
stdout: 136 to 138 °C

stdin: Please report the measured melting point for Cc1c(C)c(N2CCN(c3ccccc3)CC2)c(C)c2c1OC(C)(C)C2O (stereo not given)
stdout: 142 to 144 °C

* * *

Result Type: melting point

stdin: Please report the measured melting point for NC(=O)n1nc(-c2ccc(F)cc2)cc1N
stdout: 140 °C

stdin: Please report the measured melting point for Nc1ccccc1C(=O)NCCCn1cncn1
stdout: 96 to 98 °C

stdin: Please report the measured melting point for C=CCN1CCN(CCC(=O)N2c3ccccc3C(=O)Nc3cccnc32)CC1
stdout: 205 to 207 °C

stdin: Please report the measured melting point for CC(C)(C)OC(=O)[C@@H]1CS[C@H](c2ccccc2)N1C(=O)CNC(=O)Nc1cccc(CC(=O)O)c1
stdout: 140 °C

stdin: Please report the measured melting point for CC(C)n1nc(-c2sc(NC(=O)C3CC3)nc2-c2ccccc2)ccc1=O
stdout: 226 to 227 °C

stdin: Please report the measured melting point for Cc1c(C(=O)Nc2ccc(N3CCN(C4CCOCC4)CC3)c(C#N)c2)cnn1-c1ccc(C(F)(F)F)cc1
stdout: 274 °C

stdin: Please report the measured melting point for CCCCCCCS(=O)(=O)Oc1c(I)cc(I)cc1I
stdout: 78 to 80 °C

stdin: Please report the measured melting point for O=[N+]([O-])c1ccc2c(c1)COCC2
stdout: 96 to 98 °C

stdin: Please report the measured melting point for COc1cc(C(=O)O)cc2c(C)c(C)oc12
stdout: 229 to 231 °C

stdin: Please report the measured melting point for COc1ccc2nc(SCc3nccc(OCC(F)(F)F)c3OC)[nH]c2c1
stdout: 149 to 150 °C

stdin: Please report the measured melting point for C=C(C)c1cc(Br)c(Oc2nc(C)nc3c2nnn3C(CCC)CCC)c(OC)c1
stdout: 110 to 115 °C

stdin: Please report the measured melting point for Cc1c(NC(=O)c2ccc(OC[C@@H]3CCCO3)cc2F)ccc2c1cc(CNCC1CCOCC1)n2C
stdout: 149 °C

stdin: Please report the measured melting point for Cc1c(C(=O)c2ccc(F)cc2)c(C)n(C)c1C(=O)c1cccnc1
stdout: 85 to 88 °C

stdin: Please report the measured melting point for CC1(C)CCC(C)(C)c2ccccc21
stdout: 71 to 72 °C

stdin: Please report the measured melting point for Clc1ccc2c(c1)C1(CN3CCC(Nc4ncccn4)CC3)CC2c2ccccc21 (stereo unspecified)
stdout: 212 to 214 °C

stdin: Please report the measured melting point for O=C(OCC1OC(OC(=O)c2ccccc2)C(F)C1OC(=O)c1ccccc1)c1ccccc1 (stereo unspecified)
stdout: 77 to 78 °C

stdin: Please report the measured melting point for Cc1cccc(Cl)c1NC(=O)Nc1cc(NC(C)C)ncn1
stdout: 233 °C

stdin: Please report the measured melting point for CC(c1ccc(-c2ccccc2)c(F)c1)c1nc(CC(=O)O)no1 (stereo unspecified)
stdout: 100 to 102 °C

stdin: Please report the measured melting point for Brc1ccc2cc(Nc3ccccc3)ccc2c1
stdout: 126 to 128 °C

stdin: Please report the measured melting point for C=CCn1cc(C(=O)O)c(=O)c2cc(F)c(N3CCNCC3)cc21
stdout: 136 °C

stdin: Please report the measured melting point for CCCCCCCCOCC(CO)(CO)COCCCCCCCC
stdout: 30 to 32 °C
